Taken from BindingDB's records for doi:10.1016/s0960-894x(01)00209-8.

TARGET: Beta-glucosidase (Agrobacterium sp.) (UniProt P12614)
Sequence (P12614 whole entry, looked up): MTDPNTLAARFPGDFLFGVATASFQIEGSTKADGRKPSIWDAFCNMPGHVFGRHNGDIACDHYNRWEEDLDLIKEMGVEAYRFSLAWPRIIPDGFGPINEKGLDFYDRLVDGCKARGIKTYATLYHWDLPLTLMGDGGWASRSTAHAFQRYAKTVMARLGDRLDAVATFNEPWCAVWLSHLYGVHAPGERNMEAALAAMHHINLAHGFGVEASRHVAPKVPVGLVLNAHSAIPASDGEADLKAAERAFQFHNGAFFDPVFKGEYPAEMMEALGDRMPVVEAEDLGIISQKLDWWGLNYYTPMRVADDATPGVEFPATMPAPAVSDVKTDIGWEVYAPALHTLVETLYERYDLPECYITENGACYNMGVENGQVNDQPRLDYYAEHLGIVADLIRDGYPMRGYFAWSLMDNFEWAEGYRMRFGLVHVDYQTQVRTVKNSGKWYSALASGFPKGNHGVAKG
VALUE TYPE: Ki (nM)
Numbers only, in nM.

{"columns": ["SUBSTANCE SMILES", "UOM", "Ki"],
 "data": [
  ["CN(C)c1cccc2c(S(=O)(=O)NCCCCCC(=O)NC[C@H]3N[C@H](CO)[C@H](O)[C@@H]3O)cccc12", "nM", 2.1]
]}

// moving on: another record for Ki
Ask: Can you look up Ki on Beta-glucosidase (Agrobacterium sp.) (UniProt P12614) for CN(C)c1cccc2c(S(=O)(=O)NC[C@H]3N[C@H](CO)[C@H](O)[C@@H]3O)cccc12 ?
Result: 2.4
